// reported Top % for each item listed
Target: T1, human Trop2 on cells (human, UniProt P09758 27-323)
T1 construct: whole, on cells; also called hTrop2; 293T-human Trop2 cells
T1 sequence (looked up): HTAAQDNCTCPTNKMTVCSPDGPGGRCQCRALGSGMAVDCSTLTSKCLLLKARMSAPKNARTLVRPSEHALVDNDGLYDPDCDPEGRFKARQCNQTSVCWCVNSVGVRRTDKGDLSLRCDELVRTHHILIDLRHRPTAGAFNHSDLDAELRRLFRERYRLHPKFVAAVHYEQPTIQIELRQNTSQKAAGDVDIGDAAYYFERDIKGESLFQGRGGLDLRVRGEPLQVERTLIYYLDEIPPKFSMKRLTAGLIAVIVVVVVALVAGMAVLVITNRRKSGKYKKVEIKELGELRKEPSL
Experiment: flow cytometry on 293T-human Trop2 cells
State just the number; it will be interpreted in %.

Completed entries (count: 2):
IN: Any idea what its Top % is? The binder is PR001130 (antibody, human IgG1, kappa, V domains shown, fully human IgG1/kappa; also called antibody No. (2)) VH: QVQLQESGPGLVKPSGTLSLTCAVSGDSISSHNWWSWVRQPPGKGLEWIGEIYHSGITSYNPSLKSRVTISVDKSKNQFSLKLNSVTAADTAMYYCARGSGVISYFDYWGQGTLVTVSS VL: DIQMTQSPSTLSASVGDRVTITCRASQSIGNWLAWYQQKPGKAPKLLIYKASSLESGVPSRFSGSGSGTEFTLTISSLQPDDFATYYCQQYDSYSPITFGQGTRLEIKR
OUT: 105

IN: Any idea what its Top % is? The binder is PR001152 (antibody, human IgG1, kappa, V domains shown, fully human IgG1/kappa; also called antibody No. (15)) VH: QVQLVESGGAVVQPGRSLRLSCAASGFTFSHYGMHWVRQAPGKGLEWVAVIWYDGIKSYYVESVKGRFTISRDNSKNTLYLQMDRLRAEDTAVYYCARDGGFGESNYYGLDVWGQGTTVTVSS VL: DIQLTQSPSFLSASVGDRVTITCRASQGINSYLGWYQRKPGKAPKLLIYIASTLQSGVPSRFSGSGSGTEFTLTISSLQPEDFATYYCQQLNSYPYTFGQGTKLEIKR
OUT: 111

// moving on: another record for Top %
IN: Any idea what its Top % is? The binder is PR001150 (antibody, human IgG1, kappa, V domains shown, fully human IgG1/kappa; also called antibody No. (13)) VH: QVQLVESGGGVVQPEKSLRLSCAASGFTFSHYGMHWVRQVPGKGLEWVAVIWYDGIKRYYVESVKGRFTISRDNSKNTLYLQMNRLRAEDTAVYYCARDGGFGESNYYGLDVWGQGTTVTVSS VL: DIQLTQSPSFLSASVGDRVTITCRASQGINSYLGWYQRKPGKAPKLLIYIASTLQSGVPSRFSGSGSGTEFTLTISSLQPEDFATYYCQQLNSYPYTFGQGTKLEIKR
OUT: 101
